- Tgt: GDP-bound BRAS protein (aa 1-169), containing both G12C and C118A amino acid substitutions (Homo sapiens, UniProt P01116, C118A/G12C)
- Sequence (P01116 1-169 isoform P01116-2 G12C/C118A): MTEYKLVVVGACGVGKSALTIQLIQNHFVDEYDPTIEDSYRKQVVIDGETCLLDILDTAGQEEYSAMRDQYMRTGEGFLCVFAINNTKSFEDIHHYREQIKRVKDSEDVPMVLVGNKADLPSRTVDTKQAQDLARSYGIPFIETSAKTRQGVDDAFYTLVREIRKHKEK
- Protocol notes: Coupled Nucleotide Exchange Assay (SOS-mediated nucleotide exchange, AlphaScreen)
- Measurement context: 2 hours compound pre-incubation
Quantity name: pIC50
Worth noting: pIC50 values are minus log10 of concentrations stated in mol/L.

Lookup: What does the data say about its pIC50? Entry: C=CC(=O)N1CCN(c2nc(=O)n(-c3ccccc3C(C)C)c3cc(Br)c(Cl)cc23)[C@@H](C)C1
Found: 6.54

====

- System: Phosphorylation of ERK½ in A549 cells
- Protocol notes: Phospho-ERK½ MSD Assay in A549 cells
- Type: cell-based
- Measurement context: A549 cells; 4 hours compound treatment; 10 ng/mL EGF for 10 min; read-out: p-ERK IC50 (A549)
Quantity name: IC50

Lookup: Name the recorded IC50 for C=CC(=O)N1CCN(c2snc3nc(-c4cc(O)cc5ccccc45)c(Cl)cc23)C(C)C1 (single isomer, unassigned) [Example 2-5-1] .
Found: > 100 µM

Lookup: What do we get for C=CC(=O)N1CCN(c2nc(=O)n(-c3ccccc3C(C)C)c3cc(-c4c(O)cccc4F)c(Cl)cc23)[C@@H](C)C1 (single isomer, unassigned) ?
Found: > 100 µM

Lookup: Can you handle C=CC(=O)N1CCN(c2snc3c(F)c(-c4cc(O)cc5ccccc45)c(Cl)cc23)CC1 (single isomer, unassigned) [Example 3-1-2] next?
Found: > 100 µM

Lookup: Same thing, different compound: C=CC(=O)N1CCN(c2nc(=O)n(-c3ccccc3C(C)C)c3nc(-c4c(O)cccc4F)c(Cl)cc23)[C@@H](C)C1 (single isomer, unassigned) [Example 8-6-1]
Found: > 33.3 µM

====

Assignment: determine reported pIC50 for the given compounds.
- Test system: Phosphorylation of ERK½ in A549 cells
- Protocol notes: Phospho-ERK½ MSD Assay in A549 cells
- Assay type: cell-based
- Measurement context: Homo sapiens, A549, A549 cells; 4 hours compound treatment; 10 ng/mL EGF for 10 min; read-out: p-ERK IC50 (A549)
pIC50: −log10 of the molar value.

Lookup: What measured pIC50 goes with C=CC(=O)N1CCN(c2snc3c(F)c(-c4cc(O)cc5ccccc45)c(Cl)cc23)C(C(=O)OC)C1 (racemic) ?
Found: < 4.00

Lookup: Please do the same for C=CC(=O)N1CC(N(C)c2snc3c(F)c(-c4cc(O)cc5ccccc45)c(Cl)cc23)C1 as well.
Found: < 4.00

Lookup: And what about the compound C=CC(=O)N1CCN(c2nc(=O)n(-c3ccccc3C(C)C)c3cc(-c4c(O)cccc4F)c(Cl)cc23)[C@@H](C)C1 (single isomer, unassigned) [Example 8-3-1] ?
Found: < 4.00

Lookup: Continue with C=CC(=O)N1CCN(c2snc3c(F)c(-c4cc(O)cc5ccccc45)c(Cl)cc23)C(CCO)C1 (stereo in doubt)
Found: < 4.00

Lookup: Input C=CC(=O)N1CCN(c2snc3nc(-c4c(C)ccc5[nH]ncc45)c(Cl)cc23)C(C)C1 (single isomer, unassigned) [Example 2-6-2]
Found: 5.43

Lookup: Okay, and C=CC(=O)N1CCN(c2nnc(-c3ccccc3C3CC3)c3cc(-c4c(O)cccc4F)c(Cl)cc23)CC1 ?
Found: < 4.00

Lookup: Query C=CC(=O)N1CCN(c2snc3c(F)c(-c4cc(O)cc5ccccc45)c(Cl)cc23)C[C@@H]1C next
Found: < 4.00

Lookup: Repeat for the following compound: CN(C)C/C=C/C(=O)N1CCN(c2snc3c(F)c(-c4cc(O)cc5ccccc45)c(Cl)cc23)CC1
Found: 4.31

Lookup: What would you report for C=CC(=O)N1CCN(c2snc3nc(-c4cc(O)cc5ccccc45)c(Cl)cc23)C(C)C1 (racemic) ?
Found: 5.43

Lookup: Now the same for C=CC(=O)N1CCN(c2nc(=O)n(-c3ccccc3C(C)C)c3cc(-c4cc(N)ccc4Cl)c(Cl)cc23)[C@@H](C)C1
Found: 4.18

Lookup: Also need C=CC(=O)N1CCN(c2snc3c(F)c(-c4cc(O)c(F)cc4F)c(Cl)cc23)CC1 , thanks.
Found: 4.95

Lookup: Then what about the compound C=CC(=O)N1CCN(c2snc3c(F)c(-c4cc(O)cc(F)c4F)c(Cl)cc23)CC1 ?
Found: < 4.00

Lookup: Subsequent entry: C=CC(=O)N1CCN(c2snc3nc(-c4cc(O)cc5ccccc45)c(Cl)cc23)CC1
Found: 5.43

Lookup: What about C=CC(=O)N1C[C@@H]2[C@H]1CCN2c1snc2c(F)c(-c3cc(O)cc4ccccc34)c(Cl)cc12 (racemic) ?
Found: < 4.48

Lookup: Also need C=CC(=O)N1CCN(c2snc3c(F)c(-c4cc(O)ccc4F)c(Cl)cc23)CC1 , thanks.
Found: < 4.00

Lookup: Now this one: C=CC(=O)N1CCN(c2snc3c(F)c(-c4c(C5CC5)ccc5[nH]ncc45)c(Cl)cc23)CC1
Found: < 4.48

Lookup: # iterate: C=CC(=O)N1CCN(c2nc(=O)n([C@H]3CCCCC3(C)C)c3nc(-c4c(O)cccc4F)c(Cl)cc23)CC1 (racemic)
Found: < 4.00

Lookup: Another compound: C=CC(=O)N1CCN(c2nnc(-c3ccccc3C(C)C)c3cc(-c4c(O)cccc4F)c(Cl)cc23)CC1
Found: < 4.00

====

- Test system: Phosphorylation of ERK½ in A549 cells
- Protocol notes: Phospho-ERK½ MSD Assay in A549 cells
- Type: cell-based
- Measurement context: Homo sapiens, A549, A549 cells; 4 hours compound treatment; 10 ng/mL EGF for 10 min; read-out: p-ERK IC50 (A549)
pIC50: −log10 of the molar value.
Quantity name: pIC50

Lookup: Under Phosphorylation of ERK½ in A549 cells: pIC50 value of C=CC(=O)N1CCN(c2nnc(-c3cccc4[nH]ccc34)c3cc(-c4c(O)cccc4F)c(Cl)cc23)CC1 [Example 10-9] ?
Found: < 4.00

Lookup: # repeat for C=CC(=O)N1CCN(c2snc3c(F)c(-c4cc(O)ccc4Br)c(Cl)cc23)CC1 [Example 1-1]
Found: < 4.48

Lookup: Now try C=CC(=O)N1CCN(c2snc3c(F)c(-c4cc(O)cc5ccccc45)c(Cl)cc23)[C@@H](CO)C1 [Example 1-15] .
Found: < 4.00

Lookup: Record: C=CC(=O)N1CCN(c2snc3c(F)c(-c4cc(O)cc5ccccc45)c(Cl)cc23)[C@H](C)C1 [Example 1-21]
Found: < 4.00

Lookup: // repeat for C=CC(=O)N1CCN(c2nnc(-c3ccccc3Cl)c3cc(-c4c(O)cccc4F)c(Cl)cc23)CC1 [Example 10-11] and report
Found: < 4.00

Lookup: Next up: C=CC(=O)N1CCN(c2snc3c(F)c(-c4c(C)ccc5[nH]ncc45)c(Cl)cc23)[C@@H](C)C1 [Example 1-10]
Found: 4.95

Lookup: Request: C=CC(=O)N1CCN(c2snc3c(F)c(-c4cc(N)cc(F)c4F)c(Cl)cc23)CC1 [Example 3-15]
Found: < 4.00

Lookup: Now consider C=CC(=O)N1CCN(c2snc3c(F)c(-c4c(C)ccc5[nH]ncc45)c(Cl)cc23)[C@H](C(F)F)C1 (racemic) [Example 2-8] and answer again.
Found: < 4.00

====

Record form. Attribute: IC50. Fill in for each entry.
- Test system: Phosphorylation of ERK½ in A549 cells
- Protocol notes: Phospho-ERK½ MSD Assay in A549 cells
- Type: cell-based
- Measurement context: Homo sapiens, A549, A549 cells; 4 hours compound treatment; 10 ng/mL EGF for 10 min; read-out: p-ERK IC50 (A549)

Lookup: Return reported IC50; argument: C=CC(=O)N1CCN(c2nc(=O)n(-c3ccccc3C(C)C)c3cc(-c4ccccc4Cl)c(Cl)cc23)[C@@H](C)C1
Found: 64 µM

Lookup: Try this molecule next: C=CC(=O)N1CCN(c2snc3cc(-c4c(O)cccc4F)c(Cl)cc23)CC1
Found: > 100 µM

Lookup: // query: C=CC(=O)N1CCN(c2snc3c(F)c(-c4nc(N)cc5ccccc45)c(Cl)cc23)CC1
Found: > 100 µM

Lookup: Try this molecule next: C=CC(=O)N1CCN(c2snc3c(F)c(-c4cccc5cccnc45)c(Cl)cc23)CC1
Found: > 100 µM

Lookup: Would you kindly repeat that for C=CC(=O)N1CCN(c2snc3c(F)c(-c4cc(O)cc5ccccc45)c(Cl)cc23)CC1 ?
Found: > 100 µM

Lookup: Query C=CC(=O)N1CCN(c2snc3c(F)c(-c4cccc5ccccc45)c(Cl)cc23)CC1 next
Found: > 100 µM

Lookup: Try this molecule next: C=CC(=O)N1CCN(c2snc3c(F)c(-c4cc(O)cc5ccccc45)c(Cl)cc23)[C@@H](CF)C1 (racemic)
Found: > 100 µM

Lookup: Would you kindly repeat that for C=CC(=O)N1CCN(c2snc3c(F)c(-c4cc(O)cc5cnn(C)c45)c(Cl)cc23)CC1 ?
Found: 3.7 µM

FYI, the data here is from patent US11285135B2.
